Target: T1, human CCX CKR with N-terminal Flag epitope, stably expressed on HEK293 cells (UniProt Q9NPB9 1-350)
T1 chain: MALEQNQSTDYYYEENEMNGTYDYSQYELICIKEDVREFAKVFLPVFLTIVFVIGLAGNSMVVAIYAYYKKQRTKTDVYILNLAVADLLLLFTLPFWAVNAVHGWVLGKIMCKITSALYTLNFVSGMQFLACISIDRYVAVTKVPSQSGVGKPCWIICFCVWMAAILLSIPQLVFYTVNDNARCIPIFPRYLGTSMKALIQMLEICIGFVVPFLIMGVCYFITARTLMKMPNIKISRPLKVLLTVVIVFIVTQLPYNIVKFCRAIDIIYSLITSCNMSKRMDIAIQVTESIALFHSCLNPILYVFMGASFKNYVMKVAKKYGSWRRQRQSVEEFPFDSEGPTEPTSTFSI
Assay: 125I-ELC competition binding
REPORTED_METRIC: log10 IC50 (log10 of the value in nM)
Base-10 log of IC50, unit nM.

Guide cases for log10 IC50, answers given:
Quick note, log10 IC50 for human SLC (secondary lymphoid-tissue chemokine) (ligand) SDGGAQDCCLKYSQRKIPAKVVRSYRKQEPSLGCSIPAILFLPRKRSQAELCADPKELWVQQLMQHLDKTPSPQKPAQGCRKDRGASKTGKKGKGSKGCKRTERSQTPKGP landed at 1.08

Recorded result, human TECK (thymus expressed chemokine) (ligand, 125I label where used as radioligand) QGVFEDCCLAYHYPIGWAVLRRAWTYRIQEVSGSCNLPAAIFYLPKRHRKVCGNPKSREVQRAMKLLDARNKVFAKLHHNTQTFQAGPHAVKKLSSGNSKLSSSKFSNPISSSKRNVSLLISANSGL , log10 IC50: 0.85

log10 IC50 in this record for murine SLC (ligand) SDGGGQDCCLKYSQKKIPYSIVRGYRKQEPSLGCPIPAILFSPRKHSKPELCANPEEGWVQNLMRRLDQPPAPGKQSPGCRKNRGTSKSGKKGKGSKGCKRTEQTQPSRG : 0.60

Per the records, this binder ( murine ELC (ligand) GANDAEDCCLSVTQRPIPGNIVKAFRYLLNEDGCRVPAVVFTTLRGYQLCAPPDQPWVDRIIRRLKKSSAKNKGNSTRRSPVS ) has log10 IC50 equal to 0.00

mMIP-1gamma (murine macrophage inflammatory protein 1 gamma) (ligand) QITHATETKEVQSSLKAQQGLEIEMFHMGFQDSSDCCLSYNSRIQCSRFIGYFPTSGGCTRPGIIFISKRGFQVCANPSDRRVQRCIERLEQNSQPRTYKQ has a reported log10 IC50 of 1.85

Measured log10 IC50, vMIPII (viral macrophage inflammatory protein II) from human Kaposi's sarcoma herpesvirus HHV8 (ligand) LGASWHRPDKCCLGYQKRPLPQVLLSSWYPTSQLCSKPGVIFLTKRGRQVCADKSKDWVKKLMQQLPVTAR : 1.95

The recorded log10 IC50 for human ELC (EBI1 ligand chemokine) (ligand, 125I label where used as radioligand) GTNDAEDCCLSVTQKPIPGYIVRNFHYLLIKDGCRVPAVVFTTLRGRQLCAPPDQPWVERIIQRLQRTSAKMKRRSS is 0.78

Below: the item to evaluate.
According to the records, this binder murine TECK (ligand) QGAFEDCCLGYQHRIKWNVLRHARNYHQQEVSGSCNLRAVRFYFRQKVVCGNPEDMNVKRAMRILTARKRLVHWKSASDSQTERKKSNHMKSKVENPNSTSVRSATLGHPRMVMMPRKTNN displays log10 IC50 of 0.30
